System: RPS6KB1 (human), P23443 [T412E]
Sequence (P23443 whole entry T412E, looked up): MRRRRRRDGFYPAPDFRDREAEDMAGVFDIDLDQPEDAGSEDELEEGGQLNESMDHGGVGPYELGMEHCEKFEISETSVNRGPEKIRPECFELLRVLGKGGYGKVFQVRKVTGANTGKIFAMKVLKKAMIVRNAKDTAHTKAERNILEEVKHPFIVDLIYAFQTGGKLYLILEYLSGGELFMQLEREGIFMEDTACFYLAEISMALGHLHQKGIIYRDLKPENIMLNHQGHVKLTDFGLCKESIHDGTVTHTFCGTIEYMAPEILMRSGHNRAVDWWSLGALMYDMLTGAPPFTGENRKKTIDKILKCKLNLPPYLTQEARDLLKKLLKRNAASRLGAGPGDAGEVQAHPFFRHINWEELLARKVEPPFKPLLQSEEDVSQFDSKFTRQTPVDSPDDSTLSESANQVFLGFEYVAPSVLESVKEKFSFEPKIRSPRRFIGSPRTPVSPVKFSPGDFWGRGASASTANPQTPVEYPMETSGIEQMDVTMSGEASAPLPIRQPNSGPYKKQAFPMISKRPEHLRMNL
Experiment: radiometric filter-binding kinase assay
Conditions: compound 1.0 µM
Parameter measured: residual activity (%)

Use the examples below as a reference point.
CCCC(CCC)C(=O)O: 81
CNC(=O)C1[C@H]2O[C@@](C)([C@@H]1N)n1c3ccccc3c3c4c(c5c6ccccc6n2c5c31)C(=O)NC4 (stereo partly drawn): 3
CN1C(=O)[C@@H](Cc2c[nH]c3ccccc23)NC1=S: 83

[1] Cn1nc(Nc2ccc(F)cc2)c2c(N)ncnc21
[2] COc1ccc(-n2ncc3cnc(Nc4cc(OC)c(OC)c(OCCCN5CCN(C)CC5)c4)nc32)cc1
[3] O=C(O)c1ccc(-c2c[nH]c3ncc(-c4ccccc4)cc23)cc1C1CCCC1
[4] CCc1cncnc1N1CCN(Cc2nc3cc(C(F)(F)F)ccc3[nH]2)CC1
[5] CCn1c(-c2nonc2N)nc2cncc(CNC3CCNCC3)c21
Exercise: // ranking: key=residual activity, reverse=True Respond with the label ranking, as requested.
Solution: 1, 3, 2, 4, 5
(1: 114%, 3: 74%, 2: 28%, 4: 16%, 5: 5%)

###

Target: IKBKE (human)
Assay: radiometric filter-binding kinase assay
Conditions: compound 1.0 µM
Parameter measured: residual activity (%)

Use the examples below as a reference point.
COc1ccc(N(C(=O)Nc2c(C)cccc2C)c2cc(Nc3ccc(N4CCN(C)CC4)cc3)ncn2)c(OC)c1: 102
Cc1cc(SCc2sc(-c3ccc(C(F)(F)F)cc3)nc2C)ccc1OCC(=O)O: 92

[A] O=C(NOC[C@H](O)CO)c1ccc(F)c(F)c1Nc1ccc(I)cc1Cl
[B] CNC(=O)C1[C@H]2O[C@@](C)([C@@H]1N)n1c3ccccc3c3c4c(c5c6ccccc6n2c5c31)C(=O)NC4 (some centres undefined)
Exercise: // compare measured residual activity, left A , right B , return larger // respond with label for picked entry
Solution: A
(A: 103%, B: 2%)

###

Molecular target: SRPK1 (human)
Test: radiometric filter-binding kinase assay
Details: compound 10.0 µM
Parameter measured: residual activity (%)

NC1(c2ccc(-c3nc4ccn5c(=O)[nH]nc5c4cc3-c3ccccc3)cc2)CCC1: 116

[A] N#Cc1c(O)c2c(-c3ccc(-c4ccccc4O)cc3)csc2[nH]c1=O
[B] CCNc1nc(Nc2cc(F)c(C(=O)N3CCOCC3)cc2OC)ncc1C(F)(F)F
Exercise: // compare measured residual activity, left A , right B , return larger // respond with label for picked entry
Solution: A
(A: 107%, B: 68%)

###

Biological target: PHKG1 (human)
Experiment: radiometric filter-binding kinase assay
Conditions: compound 10.0 µM
Parameter measured: residual activity (%)

CCn1c(-c2nonc2N)nc2cncc(CNC3CCNCC3)c21: 75
COc1cc(C(=O)N2CCOCC2)c(F)cc1Nc1ncc(C(F)(F)F)c(NC2CC2)n1: 8
COc1cc2ncn(-c3cc(OCc4ccccc4S(C)(=O)=O)c(C#N)s3)c2cc1OC: 4
CNc1nc(-c2ccc3c(N)n[nH]c3c2)cc(N2C[C@@H](C(=O)NC3CCCCC3)CC[C@H]2C)n1: 78
c1ccc2c(-c3cnn4cc(-c5ccc(N6CCNCC6)cc5)cnc34)ccnc2c1: 21

[P] O=C(NOC[C@H](O)CO)c1ccc(F)c(F)c1Nc1ccc(I)cc1Cl
[Q] COc1ccc2c(c1)c1c3c(c4c5ccccc5n(C)c4c1n2CC(O)CN(C)C)C(=O)NC3=O (stereo not drawn)
[R] NC(=O)c1cc2c(-c3cccc(-c4ccccc4)c3)cnc(N)c2s1
[S] Cc1ccc(Sc2cnc(Nc3cccc(Br)n3)s2)cc1C(=O)N1CCN(C(=O)CN)CC1
Exercise: Form: Sort by [residual activity] Order [ ascending ] Respond with the label ranking, as requested.
Solution: S, Q, R, P
(S: 2%, Q: 11%, R: 55%, P: 90%)

[a] N#Cc1c(O)c2c(-c3ccc(-c4ccccc4O)cc3)csc2[nH]c1=O
[b] O=C(Nc1ccccc1-c1cn2c(CN3CCNCC3)csc2n1)c1cnc2ccccc2n1
[c] O=c1c(O)c(-c2ccc(O)c(O)c2)oc2cc(O)c(O)c(O)c12
Exercise: Form: Sort by [residual activity] Order [ ascending ] Respond with the label ranking, as requested.
Solution: c, b, a

[P] O=S(=O)(c1ccc(F)c2nonc12)N1CCN(c2ncc(C(F)(F)F)cc2Cl)CC1
[Q] NC(=O)c1c(NC(=O)C2CC2)sc2c1CCCC2
Exercise: // compare measured residual activity, left P , right Q , return larger // respond with label for picked entry
Solution: P
(P: 90%, Q: 62%)

###

Biological target: MKNK1 (human)
Experiment: radiometric filter-binding kinase assay
Details: compound 1.0 µM
Parameter measured: residual activity (%)

Use the examples below as a reference point.
N#Cc1c(C2CCNCC2)cc(-c2c(O)cccc2OCC2CC2)nc1N: 101
CCCCCc1ccc(/C=C/[C@H](O)[C@@H](CO)NC)cc1: 92
Cc1ccc(=O)n(-c2ccccc2)c1: 101
Cc1ccc(-c2ccc3c(ccc4sc5c(c43)NC[C@@H](C)NC5=O)n2)cn1: 103
O=C(NCCCNc1nc(Nc2cccc(CN3CCOCC3)c2)ncc1C1CC1)C1CCC1: 96

[a] O=C(O)c1cc(N=Nc2ccc(S(=O)(=O)Nc3ccccn3)cc2)ccc1O
[b] COc1ccc(-n2ncc3cnc(Nc4cc(OC)c(OC)c(OCCCN5CCN(C)CC5)c4)nc32)cc1
Exercise: // compare measured residual activity, left a , right b , return larger // respond with label for picked entry
Solution: a
(a: 97%, b: 17%)

###

Biological target: CAMKK2 (human)
Assay: radiometric filter-binding kinase assay
Details: compound 10.0 µM
Parameter measured: residual activity (%)

C=CC(=O)N1CCC[C@@H](n2nc(-c3ccc(Oc4ccccc4)cc3)c3c(N)ncnc32)C1: 80
CCc1cncnc1N1CCN(Cc2nc3cc(C(F)(F)F)ccc3[nH]2)CC1: 80
CCCC(CCC)C(=O)O: 98

[A] O=C(O)c1cc(N=Nc2ccc(S(=O)(=O)Nc3ccccn3)cc2)ccc1O
[B] Cc1nc(-c2ccc(OCC(C)C)c(C#N)c2)sc1C(=O)O
Exercise: // compare measured residual activity, left A , right B , return larger // respond with label for picked entry
Solution: A

[a] CCNc1nc(Nc2cc(F)c(C(=O)N3CCOCC3)cc2OC)ncc1C(F)(F)F
[b] O=S(=O)(c1ccc(F)c2nonc12)N1CCN(c2ncc(C(F)(F)F)cc2Cl)CC1
Exercise: Please indicate which has the smaller reported residual activity: a , or b . // respond with label for picked entry
Solution: a
(a: 7%, b: 83%)

[a] CC(C)C[C@H](NC(=O)CNC(=O)c1cc(Cl)ccc1Cl)B1OC(=O)CC(CC(=O)O)(C(=O)O)O1 (stereo not given in full)
[b] O=C(O)c1ccc(-c2c[nH]c3ncc(-c4ccccc4)cc23)cc1C1CCCC1
[c] c1ccc2c(-c3cnn4cc(-c5ccc(N6CCNCC6)cc5)cnc34)ccnc2c1
[d] Cc1ccc(Sc2cnc(Nc3cccc(Br)n3)s2)cc1C(=O)N1CCN(C(=O)CN)CC1
Exercise: Form: Sort by [residual activity] Order [ ascending ] Respond with the label ranking, as requested.
Solution: b, c, d, a

###

Target: STK16 (human) (UniProt O75716)
Sequence (O75716 whole entry, looked up): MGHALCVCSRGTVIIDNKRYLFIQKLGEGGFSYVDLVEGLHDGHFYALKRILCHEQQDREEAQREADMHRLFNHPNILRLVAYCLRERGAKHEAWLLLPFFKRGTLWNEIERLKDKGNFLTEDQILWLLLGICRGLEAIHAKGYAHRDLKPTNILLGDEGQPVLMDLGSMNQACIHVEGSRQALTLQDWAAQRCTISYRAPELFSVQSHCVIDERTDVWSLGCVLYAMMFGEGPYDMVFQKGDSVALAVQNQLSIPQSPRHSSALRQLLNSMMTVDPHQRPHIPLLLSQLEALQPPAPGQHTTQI
Experiment: radiometric filter-binding kinase assay
Details: compound 10.0 µM
Parameter measured: residual activity (%)

c1ccc2c(-c3cnn4cc(-c5ccc(N6CCNCC6)cc5)cnc34)ccnc2c1: 84
O=C(NOCC(O)CO)c1ccc(F)c(F)c1Nc1ccc(I)cc1Cl (stereo unspecified): 86
COc1cc(C(=O)N2CCOCC2)c(F)cc1Nc1ncc(C(F)(F)F)c(NC2CC2)n1: 101
CNc1nc(-c2ccc3c(N)n[nH]c3c2)cc(N2C[C@@H](C(=O)NC3CCCCC3)CC[C@H]2C)n1: 104
CCNc1nc(Nc2cc(F)c(C(=O)N3CCOCC3)cc2OC)ncc1C(F)(F)F: 96
CC(C)(C#N)c1ccc(N2C(=O)OCc3cnc4ccc(-c5cnc6ccccc6c5)cc4c32)cc1: 100
NC(=O)c1c(NC(=O)C2CC2)sc2c1CCCC2: 92
CC1=C(CO)C(=O)O[C@@H]([C@@H](C)[C@H]2CC[C@H]3[C@@H]4C[C@H]5O[C@]56[C@@H](O)C=CC(=O)[C@]6(C)C4CC[C@]23C)C1 (stereo partly specified): 126
CCn1c(-c2nonc2N)nc2cncc(CNC3CCNCC3)c21: 83
Cc1ccc(=O)n(-c2ccccc2)c1: 96
CCCCCc1ccc(/C=C/[C@H](O)[C@@H](CO)NC)cc1: 100

###

Biological target: PRKACA (human)
Experiment: radiometric filter-binding kinase assay
Settings: compound 0.1 µM
Parameter measured: residual activity (%)

CCn1c(-c2nonc2N)nc2cncc(CNC3CCNCC3)c21: 79
O=C(N[C@@H](COc1ccc2[nH]c(=O)[nH]c2c1)c1ccccc1)c1cccn(Cc2ccc(F)c(F)c2)c1=O: 105
C=CC(=O)N1CCC[C@@H](n2nc(-c3ccc(Oc4ccccc4)cc3)c3c(N)ncnc32)C1: 89
Cc1ccc(-c2ccc3c(ccc4sc5c(c43)NC[C@@H](C)NC5=O)n2)cn1: 109
